- study_system: UniProt P13995
measurement_name: pKd
To interpret pKd, take it as minus log10 of a concentration measured in moles per litre.

**Q:** Query pKd on UniProt P13995 for CO[C@H](CC(=O)O)[C@@H](C)C(=O)[C@H](C)/C=C(\C)[C@H]1OC(=O)[C@H](O)[C@H](O)/C=C/[C@H](C)CCC[C@@H]1C
**A:** 7.72

* * *

- study_system: ecFoID (Escherichia coli, UniProt P24186)
- Construct: His-tag (vector pHis-TEV); made in house; host or cells: E. coli BL21 (DE3)
- assay_info: FoID dehydrogenase (DH) enzyme assay
- Assay type: biochemical, E. coli
measurement_name: IC50 (nM)
Response body: numeric value in nM, unit text excluded.

**Q:** Return reported IC50; argument: CO[C@H](CC(=O)O)[C@@H](C)C(=O)[C@H](C)/C=C(\C)[C@H]1OC(=O)[C@H](O)[C@H](O)/C=C/[C@H](C)CCC[C@@H]1C [Carolacton, carolacton]
**A:** 15.5

* * *

- study_system: spFoID (Streptococcus pneumoniae serotype 4, UniProt Q97RI9)
- Construct: made in house; host or cells: E. coli BL21 (DE3)
- Sequence (Q97RI9 whole entry): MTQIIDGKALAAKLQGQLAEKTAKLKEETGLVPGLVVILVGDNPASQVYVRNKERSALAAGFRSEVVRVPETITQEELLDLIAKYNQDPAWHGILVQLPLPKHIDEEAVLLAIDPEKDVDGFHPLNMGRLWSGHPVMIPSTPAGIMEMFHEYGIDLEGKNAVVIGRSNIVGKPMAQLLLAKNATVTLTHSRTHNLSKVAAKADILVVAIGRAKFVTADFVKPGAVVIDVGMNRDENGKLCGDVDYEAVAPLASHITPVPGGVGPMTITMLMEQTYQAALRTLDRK
- assay_info: FoID cyclohydrolase (CYH) enzyme assay
- Format: biochemical, S. pneumoniae
- applied_conditions: 5 nM enzyme, read-out: IC50, carolacton inhibition on CYH activity
measurement_name: IC50 (nM)
Response body: numeric value in nM, unit text excluded.

**Q:** Query IC50 on spFoID (Streptococcus pneumoniae serotype 4, UniProt Q97RI9) for CO[C@H](CC(=O)O)[C@@H](C)C(=O)[C@H](C)/C=C(\C)[C@H]1OC(=O)[C@H](O)[C@H](O)/C=C/[C@H](C)CCC[C@@H]1C
**A:** 38.1

* * *

- study_system: hsMTHFD1 DC301 (Homo sapiens)
- Construct: We therefore expressed and purified hsMTHFD2 and hsMTHFD1_DC to test them biochemically; His-tag (vector pHis-TEV); made in house; host or cells: E. coli BL21 (DE3)
- Sequence (P11586 2-291 limits assumed): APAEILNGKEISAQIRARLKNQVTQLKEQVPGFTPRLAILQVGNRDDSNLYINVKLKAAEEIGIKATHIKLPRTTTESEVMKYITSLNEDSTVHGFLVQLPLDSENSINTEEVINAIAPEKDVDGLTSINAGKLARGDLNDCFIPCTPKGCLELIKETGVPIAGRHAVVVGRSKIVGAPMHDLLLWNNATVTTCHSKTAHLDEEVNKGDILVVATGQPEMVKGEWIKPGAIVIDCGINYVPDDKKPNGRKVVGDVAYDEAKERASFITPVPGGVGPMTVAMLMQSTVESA
- assay_info: FoID cyclohydrolase (CYH) enzyme assay
- Type: biochemical
- applied_conditions: 5 nM enzyme, read-out: IC50, carolacton inhibition on CYH activity
measurement_name: IC50
In your response, the unit should come after the numeric value.

**Q:** Return reported IC50; argument: CO[C@H](CC(=O)O)[C@@H](C)C(=O)[C@H](C)/C=C(\C)[C@H]1OC(=O)[C@H](O)[C@H](O)/C=C/[C@H](C)CCC[C@@H]1C
**A:** 19.4 nM

* * *

- System: SW626 cells
- assay_info: CellTiter-Glo luminescent cell viability assay
- Format: cell-based, human
- applied_conditions: Homo sapiens, SW626, 72 h, natural C, methanol, 72 h, read-out: IC50 inhibition of cancer cell proliferation
measurement_name: IC50 (µM)
Response body: numeric value in µM, unit text excluded.

**Q:** Query IC50 on SW626 cells for CO[C@H](CC(=O)O)[C@@H](C)C(=O)[C@H](C)/C=C(\C)[C@H]1OC(=O)[C@H](O)[C@H](O)/C=C/[C@H](C)CCC[C@@H]1C [Carolacton, carolacton]
**A:** 0.365

* * *

- study_system: hsMTHFD2 (Homo sapiens, UniProt P13995)
- Construct: His-tag (vector pHis-TEV); made in house; host or cells: E. coli BL21 (DE3)
- Sequence (P13995 36-350): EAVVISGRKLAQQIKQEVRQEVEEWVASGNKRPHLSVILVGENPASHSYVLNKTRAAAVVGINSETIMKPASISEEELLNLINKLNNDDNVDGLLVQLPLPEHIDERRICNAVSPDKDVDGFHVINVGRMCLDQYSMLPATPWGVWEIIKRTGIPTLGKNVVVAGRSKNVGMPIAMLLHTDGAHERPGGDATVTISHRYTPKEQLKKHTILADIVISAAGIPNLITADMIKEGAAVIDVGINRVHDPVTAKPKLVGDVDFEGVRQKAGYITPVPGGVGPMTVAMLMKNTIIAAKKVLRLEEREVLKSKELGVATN
- assay_info: FoID cyclohydrolase (CYH) enzyme assay
- Assay type: biochemical
- applied_conditions: 5 nM enzyme, read-out: IC50, carolacton inhibition on CYH activity
measurement_name: IC50 (µM)
Response body: numeric value in µM, unit text excluded.

**Q:** Return reported IC50; argument: CO[C@H](CC(=O)O)[C@@H](C)C(=O)[C@H](C)/C=C(\C)[C@H]1OC(=O)[C@H](O)[C@H](O)/C=C/[C@H](C)CCC[C@@H]1C
**A:** 0.0857

* * *

- Tested on: HCT 116 cells
- assay_info: CellTiter-Glo luminescent cell viability assay
- Format: cell-based, human
- applied_conditions: Homo sapiens, HCT-116, 72 h, synthetic C, DMSO, 72 h, read-out: IC50 inhibition of cancer cell proliferation
measurement_name: IC50 (nM)
Response body: numeric value in nM, unit text excluded.

**Q:** Query IC50 on HCT 116 cells for CO[C@H](CC(=O)O)[C@@H](C)C(=O)[C@H](C)/C=C(\C)[C@H]1OC(=O)[C@H](O)[C@H](O)/C=C/[C@H](C)CCC[C@@H]1C [Carolacton, carolacton]
**A:** 286

* * *

- study_system: spFoID (Streptococcus pneumoniae serotype 4)
- Construct: made in house; host or cells: E. coli BL21 (DE3)
- assay_info: FoID cyclohydrolase (CYH) enzyme assay
- Assay type: biochemical, S. pneumoniae
- applied_conditions: vs 5,10-CH=THF, read-out: Ki (5,10-CH═THF), carolacton inhibition on CYH activity
measurement_name: Ki (nM)
Response body: numeric value in nM, unit text excluded.

**Q:** Return reported Ki; argument: CO[C@H](CC(=O)O)[C@@H](C)C(=O)[C@H](C)/C=C(\C)[C@H]1OC(=O)[C@H](O)[C@H](O)/C=C/[C@H](C)CCC[C@@H]1C [Carolacton, carolacton]
**A:** 38.1

* * *

- Tested on: NK-92 cells
- assay_info: CellTiter-Glo luminescent cell viability assay
- Format: cell-based, human
- applied_conditions: Homo sapiens, NK92, 72 h, NK-92; synthetic C, DMSO; 72 h; read-out: IC50 inhibition of cancer cell proliferation
measurement_name: IC50

**Q:** Return reported IC50; argument: CO[C@H](CC(=O)O)[C@@H](C)C(=O)[C@H](C)/C=C(\C)[C@H]1OC(=O)[C@H](O)[C@H](O)/C=C/[C@H](C)CCC[C@@H]1C
**A:** > 100 µM

* * *

- study_system: hsMTHFD2 (Homo sapiens)
- Construct: His-tag (vector pHis-TEV); made in house; host or cells: E. coli BL21 (DE3)
- assay_info: FoID cyclohydrolase (CYH) enzyme assay
- Format: biochemical
- applied_conditions: vs 5,10-CH=THF, read-out: Ki (5,10-CH═THF), carolacton inhibition on CYH activity
measurement_name: Ki (nM)
Response body: numeric value in nM, unit text excluded.

**Q:** Return reported Ki; argument: CO[C@H](CC(=O)O)[C@@H](C)C(=O)[C@H](C)/C=C(\C)[C@H]1OC(=O)[C@H](O)[C@H](O)/C=C/[C@H](C)CCC[C@@H]1C
**A:** 12.7

* * *

- study_system: hsMTHFD2 (Homo sapiens)
- Construct: His-tag (vector pHis-TEV); made in house; host or cells: E. coli BL21 (DE3)
- assay_info: FoID dehydrogenase (DH) enzyme assay
- Format: biochemical
- applied_conditions: cofactor is NAD in the case of hsMTHFD2, read-out: Ki (NADP^+)^a, carolacton inhibition on DH activity
measurement_name: Ki (µM)
Response body: numeric value in µM, unit text excluded.

**Q:** Query Ki on hsMTHFD2 (Homo sapiens) for CO[C@H](CC(=O)O)[C@@H](C)C(=O)[C@H](C)/C=C(\C)[C@H]1OC(=O)[C@H](O)[C@H](O)/C=C/[C@H](C)CCC[C@@H]1C [Carolacton, carolacton]
**A:** 0.0167

* * *

- study_system: spFoID (Streptococcus pneumoniae serotype 4, UniProt Q97RI9)
- Construct: made in house; host or cells: E. coli BL21 (DE3)
- assay_info: FoID dehydrogenase (DH) enzyme assay
- Format: biochemical, S. pneumoniae
- applied_conditions: vs 5,10-CH2-THF, read-out: Ki (5,10-CH2—THF), carolacton inhibition on DH activity
measurement_name: Ki (nM)
Response body: numeric value in nM, unit text excluded.

**Q:** Return reported Ki; argument: CO[C@H](CC(=O)O)[C@@H](C)C(=O)[C@H](C)/C=C(\C)[C@H]1OC(=O)[C@H](O)[C@H](O)/C=C/[C@H](C)CCC[C@@H]1C
**A:** 42.2

* * *

- study_system: hsMTHFD2 (Homo sapiens)
- Construct: His-tag (vector pHis-TEV); made in house; host or cells: E. coli BL21 (DE3)
- assay_info: FoID dehydrogenase (DH) enzyme assay
- Format: biochemical
- applied_conditions: 10 nM enzyme, read-out: IC50, carolacton inhibition on DH activity
measurement_name: pIC50
To interpret pIC50, take it as minus log10 of a concentration measured in moles per litre.

**Q:** Return reported pIC50; argument: CO[C@H](CC(=O)O)[C@@H](C)C(=O)[C@H](C)/C=C(\C)[C@H]1OC(=O)[C@H](O)[C@H](O)/C=C/[C@H](C)CCC[C@@H]1C
**A:** 8.19

* * *

- study_system: ecFoID Q98H (Escherichia coli, UniProt P24186, Q98H)
- assay_info: FoID dehydrogenase (DH) enzyme assay
measurement_name: IC50 (µM)
Response body: numeric value in µM, unit text excluded.

**Q:** Return reported IC50; argument: CO[C@H](CC(=O)O)[C@@H](C)C(=O)[C@H](C)/C=C(\C)[C@H]1OC(=O)[C@H](O)[C@H](O)/C=C/[C@H](C)CCC[C@@H]1C [Carolacton, carolacton]
**A:** 0.313
